Assay: Octanol-water partition coefficient (n-octanol/PBS pH 7.4)
Format: physicochemical
Conditions: pH 7.4
measurement.type: logP

Ask: logP for O=C(O)CC[C@H](NC(=O)N[C@@H](CCCCNC(=O)c1ccc(F)nc1)C(=O)O)C(=O)O [DCFPyL, reference compound] ?
Result: -3.4

---

Molecular target: PSMA (Homo sapiens)
Construct: endogenous in cells; host or cells: LNCaP cells
Test: Determination of IC50: PSMA affinity, competitive binding on LNCaP cells against ([125I]I-BA)KuE
Details: LNCaP cells, [125I]IB-KuE c=0.2 nM, 1 h, 4° C.; mean of individual measurements; read-out: IC50 Mean
measurement.type: IC50
Put down the number, then write its unit next to it.

Ask: IC50 for [^19F][^natGa]L-Dap-S-DOTAGA-rhPSMA7 [rhPSMA7.4] ?
Result: 3.62 nM

---

Answer each item with its documented HSA Binding.
Molecular target: human serum albumin (Homo sapiens)
Construct: purchased H13H-2433
Sequence (P02768 25-609): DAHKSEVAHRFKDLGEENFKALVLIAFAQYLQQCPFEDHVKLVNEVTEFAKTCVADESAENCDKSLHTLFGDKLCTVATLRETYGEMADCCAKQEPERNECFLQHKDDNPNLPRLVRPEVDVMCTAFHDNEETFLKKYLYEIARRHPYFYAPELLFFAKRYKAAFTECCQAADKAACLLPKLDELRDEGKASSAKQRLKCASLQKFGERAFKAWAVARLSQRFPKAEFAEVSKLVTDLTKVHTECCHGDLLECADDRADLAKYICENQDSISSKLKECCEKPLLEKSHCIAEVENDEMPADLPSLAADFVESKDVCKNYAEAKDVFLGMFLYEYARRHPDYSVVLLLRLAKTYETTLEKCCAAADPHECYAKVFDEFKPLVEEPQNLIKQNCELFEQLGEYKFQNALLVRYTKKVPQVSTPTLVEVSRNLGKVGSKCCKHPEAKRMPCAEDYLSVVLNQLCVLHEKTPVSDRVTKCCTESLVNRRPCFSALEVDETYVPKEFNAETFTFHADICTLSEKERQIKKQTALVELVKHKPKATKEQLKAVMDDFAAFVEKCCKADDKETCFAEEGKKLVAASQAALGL
Assay: HSA binding on Chiralpak HSA column
Format: in vitro ADME
Conditions: Chiralpak HSA column (50 × 3 mm, 5 μm)
Report the value in % with no unit label.

Ask: Give the reported HSA Binding for CC(C)(C)[Si](F)(c1ccc(C(=O)NC[C@@H](NC(=O)CC[C@@H](C(=O)O)N2CCN(CC(=O)[O-])CCN(CC(=O)[O-])CCN(CC(=O)[O-])CC2)C(=O)N[C@H](CCCCNC(=O)CCC(=O)NCCC[C@@H](NC(=O)CC[C@H](NC(=O)N[C@@H](CCC(=O)O)C(=O)O)C(=O)O)C(=O)O)C(=O)O)cc1)C(C)(C)C.[Ga+3] [rhPSMA7.3, [^19F][^natGa]D-Dap-S-DOTAGA-rhPSMA7] (system: human serum albumin (Homo sapiens)).
Result: 96.9

Ask: Give the reported HSA Binding for CC(C)(C)[Si](F)(c1ccc(C(=O)NC[C@H](NC(=O)CC[C@H](C(=O)O)N2CCN(CC(=O)[O-])CCN(CC(=O)[O-])CCN(CC(=O)[O-])CC2)C(=O)N[C@H](CCCCNC(=O)CCC(=O)NCCC[C@@H](NC(=O)CC[C@H](NC(=O)N[C@@H](CCC(=O)O)C(=O)O)C(=O)O)C(=O)O)C(=O)O)cc1)C(C)(C)C.[Ga+3] [rhPSMA7.2, [^19F][^natGa]L-Dap-R-DOTAGA-rhPSMA7] (system: human serum albumin (Homo sapiens)).
Result: 97.8

Ask: Give the reported HSA Binding for O=C(O)CC[C@H](NC(=O)N[C@@H](CCCCNC(=O)c1ccc(F)nc1)C(=O)O)C(=O)O [DCFPyL, reference compound] (system: human serum albumin (Homo sapiens)).
Result: 14.3

Ask: Give the reported HSA Binding for CC(C)(C)[Si](F)(c1ccc(C(=O)NC[C@@H](NC(=O)CC[C@H](C(=O)O)N2CCN(CC(=O)[O-])CCN(CC(=O)[O-])CCN(CC(=O)[O-])CC2)C(=O)N[C@H](CCCCNC(=O)CCC(=O)NCCC[C@@H](NC(=O)CC[C@H](NC(=O)N[C@@H](CCC(=O)O)C(=O)O)C(=O)O)C(=O)O)C(=O)O)cc1)C(C)(C)C.[Ga+3] [rhPSMA7.1, [^19F][^natGa]D-Dap-R-DOTAGA-rhPSMA7] (system: human serum albumin (Homo sapiens)).
Result: 97.7
